B1: ADD1 (parent)
chain: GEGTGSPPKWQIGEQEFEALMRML

variants of: B1; test: protein stability index of a GFP-peptide fusion (GPS, HEK-293T) (PSI 1-6); higher = more stable; conditions: c terminus: a fixed tail appended;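 further: lentivirally expressed fusions sorted by FACS into six bins by GFP to DsRed ratio, PSI derived from sequencing read proportions per bin multiplied by bin number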
Label criterion met when protein stability index is at or above 3; anything below gets criterion not met.

API: above_or_equal(metric=protein stability index, cutoff=3) for item E16A criterion not met

API: above_or_equal(metric=protein stability index, cutoff=3) for item G5K criterion not met

API: above_or_equal(metric=protein stability index, cutoff=3) for item G3P criterion met

API: above_or_equal(metric=protein stability index, cutoff=3) for item F17L criterion met

API: above_or_equal(metric=protein stability index, cutoff=3) for item W10N criterion met

API: above_or_equal(metric=protein stability index, cutoff=3) for item E18L criterion not met

API: above_or_equal(metric=protein stability index, cutoff=3) for item P8F criterion not met

API: above_or_equal(metric=protein stability index, cutoff=3) for item M21A criterion met

This collection of values is drawn from the supplement of paper PMC10567573.
